assay-target: CYP2D6 (Homo sapiens (Human), UniProt P10635)
Sequence (P10635 whole entry): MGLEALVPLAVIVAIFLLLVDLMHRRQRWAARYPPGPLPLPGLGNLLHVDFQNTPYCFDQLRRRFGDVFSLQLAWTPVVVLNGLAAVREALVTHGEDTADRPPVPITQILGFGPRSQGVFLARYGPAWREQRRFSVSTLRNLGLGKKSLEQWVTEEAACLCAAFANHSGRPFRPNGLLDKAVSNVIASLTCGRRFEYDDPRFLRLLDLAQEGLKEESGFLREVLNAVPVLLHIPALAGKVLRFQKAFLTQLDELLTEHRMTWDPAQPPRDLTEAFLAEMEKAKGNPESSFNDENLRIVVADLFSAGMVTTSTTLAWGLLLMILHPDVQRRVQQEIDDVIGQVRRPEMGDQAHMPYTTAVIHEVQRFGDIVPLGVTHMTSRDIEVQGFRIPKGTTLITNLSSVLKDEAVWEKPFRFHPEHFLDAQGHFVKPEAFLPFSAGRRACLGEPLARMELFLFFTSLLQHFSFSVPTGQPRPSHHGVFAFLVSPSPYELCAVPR
experiment: Dextromethorphan O-demethylase activity in human liver microsomes
Assay type: biochemical

# molecule, IC50 / nM
measured = [
    ("COc1cccc(CCc2ccccc2OCC(CN(C)C)OC(=O)CCC(=O)O)c1 (racemic)", 1200),
]

###

The entries below are paired with their reported IC50.
assay-target: 5-HT2A receptors (Homo sapiens (Human), UniProt P28223)
Sequence (P28223 whole entry): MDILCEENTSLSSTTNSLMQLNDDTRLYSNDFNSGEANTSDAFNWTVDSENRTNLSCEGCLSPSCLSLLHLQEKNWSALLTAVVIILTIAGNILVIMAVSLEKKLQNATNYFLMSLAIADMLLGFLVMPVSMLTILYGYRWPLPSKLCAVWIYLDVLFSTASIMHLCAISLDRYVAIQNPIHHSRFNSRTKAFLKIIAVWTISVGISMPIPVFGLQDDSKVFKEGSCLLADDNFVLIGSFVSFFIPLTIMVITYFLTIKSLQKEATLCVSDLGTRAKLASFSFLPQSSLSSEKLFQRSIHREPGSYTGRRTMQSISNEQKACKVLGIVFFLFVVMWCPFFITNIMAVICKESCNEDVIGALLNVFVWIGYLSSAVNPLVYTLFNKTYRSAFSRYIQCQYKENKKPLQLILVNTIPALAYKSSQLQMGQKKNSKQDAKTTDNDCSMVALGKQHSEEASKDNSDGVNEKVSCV
experiment: 5-HT2A receptor antagonist radioligand binding ([3H]ketanserin)
experimental-setup: inhibition of [3H]ketanserin binding; HEK-293 cells expressing human recombinant 5HT2A receptor

# molecule, assay-target, IC50
measured = [
    ("COc1cccc(CCc2ccccc2OC[C@@H](O)CN(C)C)c1", "5-HT2A receptors (Homo sapiens (Human), UniProt P28223)", "1.2 nM"),
    ("COc1cccc(CCc2ccccc2OCC(CN(C)C)OC(=O)CCC(=O)O)c1 (racemic) [Compound 50]", "5-HT2A receptors (Homo sapiens (Human), UniProt P28223)", "9.6 nM"),
    ("COc1cccc(CCc2ccccc2OCC(CN(C)C)OC(=O)CCC(=O)O)c1 (centres unmarked) [Compound 52]", "5-HT2A receptors (Homo sapiens (Human), UniProt P28223)", "11 nM"),
    ("COc1cccc(CCc2ccccc2OC[C@H](O)CN(C)C)c1", "5-HT2A receptors (Homo sapiens (Human), UniProt P28223)", "1.3 nM"),
    ("COc1cccc(CCc2ccccc2OC[C@H](CN(C)C)OC(=O)CCC(=O)O)c1", "5-HT2A receptors (Homo sapiens (Human), UniProt P28223)", "7.5 nM"),
]

###

The next entries give measured Ki for 5-HT2A receptors (Homo sapiens (Human)).

# compound, Ki (pM)
rows = [
    ("COc1cccc(CCc2ccccc2OC[C@H](O)CN(C)C)c1 [Compound 148]", 631),
    ("COc1cccc(CCc2ccccc2OC[C@@H](O)CN(C)C)c1 [Compound 147]", 794),
    ("COc1cccc(CCc2ccccc2OCC(CN(C)C)OC(=O)CCC(=O)O)c1 (racemic) [Compound 50]", 5010),
]

###

assay-target: CYP2D6 (Homo sapiens (Human), UniProt P10635)
experiment: Dextromethorphan O-demethylase activity in human liver microsomes
Format: biochemical
experimental-setup: CYP 2D6 activity; pooled human liver microsomes 0.25 mg/ml; read-out: IC50

# compound, IC50, nM
data = [
    ("COc1cccc(CCc2ccccc2OC[C@@H](O)CN(C)C)c1", 38),
    ("COc1cccc(CCc2ccccc2OC[C@H](CN(C)C)OC(=O)CCC(=O)O)c1", 580),
    ("COc1cccc(CCc2ccccc2OCC(CN(C)C)OC(=O)CCC(=O)O)c1 (stereo not shown)", 1300),
    ("COc1cccc(CCc2ccccc2OC[C@H](O)CN(C)C)c1", 96),
]

###

experiment: Pharmacokinetic study of sarpogrelate hydrochloride i.v. in rats
Format: in vivo, rat
experimental-setup: rat, in vivo; 2 mg/kg intravenous bolus, male Wistar rats, plasma; read-out: Apparent terminal elimination half-life (converted)

# compound, half-life
data = [
    ("COc1cccc(CCc2ccccc2OCC(CN(C)C)OC(=O)CCC(=O)O)c1 (racemic)", "1.21 h"),
]
